Assay: compounds raising miR-122 luciferase sensor output – cell-based, single point, plate reader, miR-122 inhibitor project, primary screen (AID 602342);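 also: higher luciferase means less miR-122 activity so hits act as miR-122 inhibitors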
Conditions: Huh7 miR-122 Renilla luciferase sensor, 48 h, neutral wells = 0; at 16.7 µM unless noted
Screen size: about 340,000 compounds; about 1,000 (0.29%) were called active.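 The calls were made as follows: active = mean replicate activation score at least 90 and every replicate individually at or above 90; inconclusive = only one of the two criteria met; inactive = neither criterion met.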 Only a selection was taken, and actives are over-represented in it overall.
Write down the outcome that applies. Available outcomes: active, inactive

See these solved cases before continuing.
>>> df
                               entry_smiles  classification
0  CNC(=O)C[C@@H]1CC[C@H]2[C@H](COc3ccc(NC(=O)c4cccc(OC)c4)cc3C(=O)N2C)O1        inactive
1  O=C(CCc1ccc(S(=O)(=O)NC2CCCCC2)cc1)NCc1ccccc1          active
2     O=C(O)c1ccc(F)c(S(=O)(=O)Nc2ccccc2)c1        inactive
3  Cc1cc(S(=O)(=O)NC2CCCCC2)ccc1OCC(=O)NCc1cccnc1        inactive
4     Cc1noc(C)c1S(=O)(=O)Nc1ccc(C(=O)O)cc1        inactive
5           COc1ccc(C)cc1S(=O)(=O)NC1CCCCC1          active
6  C[C@H](CO)N1C[C@H](C)[C@H](CN(C)C(=O)NC2CCCCC2)OCCCC[C@H](C)Oc2ccc(NC(=O)Nc3ccc4c(c3)OCO4)cc2C1=O        inactive
7  CO[C@@H]1CN(C)C(=O)c2ccc(NC(=O)C3CCC3)cc2OC[C@H](C)N(C(=O)CN(C)C)C[C@H]1C        inactive

Record request — test call for "CN1CCN(C(=O)C[C@H]2C[C@@H]3c4cc(NS(=O)(=O)c5ccc(F)cc5)ccc4O[C@@H]3[C@@H](CO)O2)CC1" inactive

====

Test: compounds raising miR-122 luciferase sensor output – cell-based, single point, plate reader, miR-122 inhibitor project, primary screen (AID 602342);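 also: higher luciferase means less miR-122 activity so hits act as miR-122 inhibitors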
Details: Huh7 miR-122 Renilla luciferase sensor, 48 h, active compounds read high, neutral wells = 0, positive control = 100; at 16.7 µM unless noted
About 1,000 (0.29%) of roughly 340,000 compounds were called active. The full list was thinned out, with actives kept by preference.
Catalogue of activation (reporter increase) readings, one per entry.

For orientation, consider the following solved cases.
>>> df
                               entry_smiles                  property_label                endpoint_result
0  CC(=O)Nc1ccc2nc(NC(=O)CS(=O)(=O)c3ccc(F)cc3)sc2c1  activation (reporter increase)  5.07% [at 12.5 µM] (inactive)
1  CCCC(=O)Nc1nc2ccc(NC(=O)c3c(F)c(F)c(OC)c(F)c3F)cc2s1  activation (reporter increase)     143% [at 12.5 µM] (active)
2  COc1ccc(C)cc1S(=O)(=O)Nc1cc2c3c(c1)CCC(=O)N3CCC2  activation (reporter increase)     150% [at 12.5 µM] (active)
3  COc1ccc(CNS(=O)(=O)c2cc3c4c(c2)CCN4C(=O)CC3)cc1  activation (reporter increase)  2.78% [at 12.5 µM] (inactive)
4       CSc1nc2ccc(NC(=O)c3c(F)cccc3F)cc2s1  activation (reporter increase)   -16% [at 12.5 µM] (inactive)

Which measured activation (reporter increase) value corresponds to "C[C@@H]1CN([C@@H](C)CO)S(=O)(=O)c2ccc(-c3cccc(C(=O)N(C)C)c3)cc2O[C@@H]1CN(C)C(=O)Nc1ccccc1" ? 18.2% (inactive)

Recorded activation (reporter increase) of "C[C@H]1CCCCO[C@H](CN(C)S(=O)(=O)c2cn(C)cn2)[C@@H](C)CN([C@@H](C)CO)C(=O)c2cc(NC(=O)C3CCCCC3)ccc2O1" , please. 1.57% (inactive)

Which measured activation (reporter increase) value corresponds to "C[C@@H]1CN([C@@H](C)CO)C(=O)c2cc(NC(=O)Nc3cccc4ccccc34)ccc2O[C@H]1CN(C)Cc1ccc(Oc2ccccc2)cc1" ? -7.47% (inactive)

====

Assay: compounds raising miR-122 luciferase sensor output – cell-based, single point, plate reader, miR-122 inhibitor project, primary screen (AID 602342);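 also: higher luciferase means less miR-122 activity so hits act as miR-122 inhibitors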
Conditions: Huh7 miR-122 Renilla luciferase sensor, 48 h, neutral wells = 0; at 16.7 µM unless noted
The campaign covered roughly 340,000 compounds. About 1,000 (0.29%) were called active.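 How the source made its calls: active means mean replicate activation score at least 90 and every replicate individually at or above 90; inconclusive means only one of the two criteria met; inactive means neither criterion met.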 Only a selection was taken, and actives are over-represented in it overall.
In this exercise, the only acceptable responses are 1.0 = active, 0.0 = inactive

Which outcome was assigned to "O=C(C[C@@H]1CC[C@H]2[C@@H](COC[C@@H](O)CN2C(=O)c2ccc3c(c2)OCO3)O1)NC1Cc2ccccc2C1" in this test? 0.0

Hey, what did the test say about "COc1ccccc1NC(=O)N1C[C@H]2[C@@H](c3ccccc31)[C@H](CO)N2Cc1ccc2c(c1)OCO2" ? 0.0

Identify the outcome logged in this assay for the molecule shown: O=C1c2ccccc2C2=Nc3ccccc3SC(c3ccccc3F)C12 (configuration not stated) 1.0

Short answer needed: outcome of this test for "CCCNc1ncnc2sc(C)c(C)c12" ? 1.0

====

Assay: compounds raising miR-122 luciferase sensor output – cell-based, single point, plate reader, miR-122 inhibitor project, primary screen (AID 602342);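 also: higher luciferase means less miR-122 activity so hits act as miR-122 inhibitors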
Settings: Huh7 miR-122 Renilla luciferase sensor, 48 h, neutral wells = 0; at 16.7 µM unless noted
Among all 340,000 compounds or so, about 1,000 (0.29%) were called active.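 The calls were made as follows: active = mean replicate activation score at least 90 and every replicate individually at or above 90; inconclusive = only one of the two criteria met; inactive = neither criterion met.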 The list comes from a sample in which actives are over-represented; it also holds close analogues and randomly drawn compounds.
// allowed return values: active, inactive

Use these answered entries as a reference point.
                                   compound  classification
0  CCc1ccc(-c2cc(C)no2)cc1S(=O)(=O)NCCc1ccc(S(N)(=O)=O)cc1          active
1  COc1ccc(OCC(=O)NCCc2ccc(S(N)(=O)=O)cc2)cc1        inactive
2  COc1ccc(OC)c(S(=O)(=O)Nc2c(C)nn(C)c2C)c1        inactive
3  O=C(Oc1ccc(C(=S)N2CCOCC2)cc1)c1ccc(F)cc1          active
4  CCC(=O)N(C)C[C@H]1Oc2cc(-c3ccc(C)cc3)ccc2S(=O)(=O)N([C@@H](C)CO)C[C@H]1C        inactive

How was "C[C@@H]1CN([C@H](C)CO)C(=O)c2cc(NC(=O)c3ccccc3)ccc2O[C@@H](C)CCCCO[C@H]1CN(C)C(=O)c1ccncc1" classified in this test? inactive

Per the records of this test, what outcome belongs to "COCCn1c(SCC(=O)Nc2ccc3c(c2)CCC3)nc2ccccc2c1=O" ? inactive

Answer briefly: the call reported for "O=C(COc1ccc(Cl)cc1)Nc1ccc2c(c1)OCO2" in this assay. inactive

Would you mind telling me which call this test gave "Cn1cnc([N+](=O)[O-])c1Sc1n[nH]c(N)n1" ? inactive

Entry "CCC(=O)N1[C@@H](CO)[C@@H]2c3ccccc3N(C(=O)c3ccccc3F)C[C@@H]21" : call = ? inactive

Which outcome was assigned to "COc1ccc(F)cc1S(=O)(=O)Nc1ccc2c(c1)OCO2" in this test? active

Give the logged outcome of this assay for the following compound: "CC(C)C#Cc1ccc([C@@H]2[C@@H](CO)N3CCCCN(C(=O)c4ccc5c(c4)OCO5)C[C@H]23)cc1" inactive

Any idea what this test logged for "Cn1cnc(S(=O)(=O)N2C[C@@H](O)COC[C@H]3O[C@@H](CC(=O)NCc4ccc(F)cc4)CC[C@@H]32)c1" ? inactive

Write down the call the test reported for this compound. Item: "COCC(=O)Nc1ccc2c(c1)C(=O)N(C)[C@H]1CC[C@H](CC(=O)Nc3ccccc3)O[C@H]1CO2" inactive

Could you check what this test reported for "CN1c2ccc(-c3ccccc3)cc2[C@H]2[C@H](CCN2C(=O)c2ccc3c(c2)OCO3)[C@H]1CO" ? inactive

Write down the call the test reported for this compound. Item: "Cc1ccc(NS(=O)(=O)c2ccc(C(C)(C)C)cc2)cn1" inactive

For COc1ccc(N2CC(NS(=O)(=O)c3ccc4ccccc4c3)CC2=O)cc1 (stereo not drawn) , which call appears in the assay record? inactive

Could you please tell me the result logged for Cn1c(=N)n(CC(O)c2cccs2)c2ccccc21 (stereo not drawn) in this assay? inactive

For "CO[C@H]1CN(C)C(=O)c2ccc(NC(=O)Cc3ccccc3)cc2OC[C@@H](C)N(C(C)=O)C[C@H]1C" , what call appears in the results of this test? inactive

Hi, do you know how "CC(C)NC(=O)N(C)C[C@@H]1Oc2c(NC(=O)c3cnccn3)cccc2C(=O)N([C@@H](C)CO)C[C@@H]1C" came out in this test? inactive

Outcome logged for "COc1ccc(S(=O)(=O)Nc2ccc(F)cc2)c(C)c1C" in this assay: active
